pKi: −log10 of the molar value.
Reported pKi on Hepatocyte growth factor receptor (Homo sapiens) for assorted molecules, compiled from publications.

Below are worked cases with known answers.
In [3]: df
Out[3]:
                                   molecule  measured_value
0  CN(C)CCNc1ccc(-c2cnc3[nH]cc(-c4nncn4-c4cccc(F)c4F)c3c2)cn1          > 6.70
1  Nc1ncc(-c2cnn(C3CCN(CCO)CC3)c2)cc1-c1nnnn1-c1cccc(Cl)c1F          ≥ 7.00
2  COC[C@H]1CCCN1Cc1ccc(-c2cnc(N)c(-c3nnnn3-c3cccc(F)c3F)c2)cc1          ≥ 7.00
3  Nc1nn2cc(-c3ccc(C(=O)NC4CCCO4)cn3)cnc2c1-c1ccccn1 (stereo not drawn)          > 6.30
4  CCN(Cc1ccccn1)c1ncccc1-c1cnc2c(-c3ccccn3)c(N)nn2c1    5.30 to 6.30
5  COc1ccc(F)cc1-n1nnnc1-c1cc(-c2ccc(CN(C)C)cc2)cnc1N    6.00 to 7.00

Field: pKi. Fill in for each record below.
1. CCCCN(CCN)C(=O)c1ccc(-c2cnc3c(-c4ccccn4)c(N)nn3c2)nc1
2. Nc1ncc(-c2cnn(C3CCOCC3)c2)cc1-c1nnnn1-c1cccc(F)c1F
3. Nc1ccc(-c2cnc(N)c(-c3nnnn3-c3cccc(F)c3F)c2)cc1F
4. COC(=O)C(C)NC(=O)Nc1cccc(-c2cnc(N)c(-c3nnnn3-c3cccc(F)c3F)c2)c1 (stereo not drawn)
5. Cc1cnc2c(-c3cc(N4CCCC(C)C4)ncn3)c(N)nn2c1 (stereo not drawn)
6. Cn1cncc1-c1cnc(N)c(-c2nnnn2-c2cccc(F)c2F)c1

[reply]
1: > 6.30; 2: ≥ 7.00; 3: ≥ 7.00; 4: 6.00 to 7.00; 5: > 6.30; 6: 6.00 to 7.00

Field: pKi. Fill in for each record below.
1. Cn1cc(-c2nn3c(Cc4c(F)cc5ncccc5c4F)nnc3s2)c(C(F)(F)F)n1
2. Cc1cnc2c(-c3cc(NC4CCCC4)ncn3)c(N)nn2c1
3. CC(C)CNc1cc(-c2c(N)nn3cc(-c4ccncc4)cnc23)ncn1
4. CN(Cc1nnc2ccc(Nc3cccc(Cl)c3)nn12)C(=O)c1cccnc1

[reply]
1: 8.70; 2: > 6.30; 3: > 6.30; 4: < 5.60

----------
pKi: −log10 of the molar value.
Reported pKi on Hepatocyte growth factor receptor (Homo sapiens) for assorted molecules, compiled from publications.

Below are worked cases with known answers.
                                   molecule                           target_of_assay  measured_value
0   Cc1cnc2c(-c3cc(Nc4ccccc4)ncn3)c(N)nn2c1  Hepatocyte growth factor receptor (Homo sapiens)          > 6.30
1  Nc1ccnc(-c2cnc3[nH]cc(-c4oncc4-c4cccc(F)c4F)c3c2)c1  Hepatocyte growth factor receptor (Homo sapiens)          > 6.70
2  Nc1nn2cc(-c3ccncn3)cnc2c1C(=O)N1CCC[C@H]1CN1CCCC1  Hepatocyte growth factor receptor (Homo sapiens)    5.30 to 6.30
3  Nc1ncc(-c2ccncc2)cc1-c1nnnn1-c1cccc(Cl)c1Cl  Hepatocyte growth factor receptor (Homo sapiens)    6.00 to 7.00

Field: pKi. Fill in for each record below.
1. Nc1ncc(-c2cccc(NC(=O)Nc3cccnc3)c2)cc1-c1nnnn1-c1cccc(F)c1F
2. Cc1cc(N2CCc3nnn(Cc4ccc5ncccc5c4)c3C2=O)sn1
3. Nc1ncc(C2=CCCNCC2)cc1-c1nnnn1-c1cccc(F)c1F
4. Nc1ncc(-c2ccc3c(c2)CC(=O)N3)cc1-c1nnnn1-c1cccc(F)c1F
5. Nc1nc2ccc(-c3cnc(N)c(-c4nnnn4-c4cccc(F)c4F)c3)cc2s1
6. Nc1nn2cc(C#CCO)cnc2c1-c1ccccn1

[reply]
≥ 7.00
7.92
6.00 to 7.00
≥ 7.00
≥ 7.00
> 6.30

----------
Reported Ki on Hepatocyte growth factor receptor (Homo sapiens, UniProt P08581) for assorted molecules, compiled from publications.

Below are worked cases with known answers.
>>> df
                                   molecule  measured_value
0  OB(O)c1cnc2[nH]cc(-c3oncc3-c3cccc(F)c3F)c2c1        < 0.2 µM
1  Nc1ncc(C2=CCN(C(=O)[C@@H]3CCOC3)CC2)cc1-c1nnnn1-c1cccc(F)c1F        ≤ 0.1 µM
2  CC(C)CN(C)c1cc(-c2c(N)nn3cc(-c4ccncc4)cnc23)ncn1        < 0.5 µM
3  Cc1c(Cl)cccc1-n1nnnc1-c1cc(-c2ccc(CN3CCCC3)cc2)cnc1N        ≤ 0.1 µM
4  Nc1ncc(-c2cnn(CC3COCO3)c2)cc1-c1nnnn1-c1cccc(F)c1F (stereo not drawn)        ≤ 0.1 µM
5  C[C@@H](c1ccc2ncccc2c1)c1nnc2sc(-c3cn(C)nc3C(F)(F)F)nn12        0.003 µM
6  CN1CCCN(c2ccc(-c3cnc4[nH]cc(-c5nncn5-c5cccc(F)c5F)c4c3)cn2)CC1        < 0.2 µM
7  C[C@H](c1c(F)cc2ncccc2c1F)c1nnc2sc(-c3cnn(C)c3)nn12        < 0.3 µM
8  Cc1nn(C)cc1-c1nn2c([C@H](C)c3c(F)cc4ncccc4c3F)nnc2s1        0.022 µM
9  CC(=O)Nc1cccc(-c2cnc(N)c(-c3nc4cnccc4n3-c3cccc(F)c3F)c2)c1        ≤ 0.1 µM

Field: Ki. Fill in for each record below.
1. Nc1nn2cc(/C=C/c3ccccc3)cnc2c1-c1ccccn1
2. CC(=O)Nc1cccc(-c2cnc(N)c(-c3nnnn3-c3cccc(Cl)c3F)c2)c1

[reply]
1: 0.5 to 5 µM; 2: ≤ 0.1 µM

Field: Ki. Fill in for each record below.
1. CCN(CC)Cc1ccc(-c2cnc(N)c(-c3nnnn3-c3cccc(F)c3F)c2)cc1
2. Nc1ncc(-c2cnn(C3CCNCC3)c2)cc1-c1nncn1-c1cccc(Cl)c1F
3. C[C@H](c1ccc(-c2cnc(N)c(-c3nnnn3-c3cccc(F)c3F)c2)cc1)N1CCCC1

[reply]
1: ≤ 0.1 µM; 2: ≤ 0.1 µM; 3: ≤ 0.1 µM

Field: Ki. Fill in for each record below.
1. CCN(Cc1ccccc1)C(=O)c1c(N)nn2cc(-c3ccncn3)cnc12
2. COCCOc1ccc(-c2cnc(N)c(-c3nnnn3-c3cccc(F)c3F)c2)cc1OCCOC
3. Nc1ncc(-c2cccc(C(F)(F)F)c2)cc1-c1nncn1-c1cccc(F)c1F

[reply]
0.5 to 5 µM
≤ 0.1 µM
0.1 to 1 µM

----------
Reported pKi on Hepatocyte growth factor receptor (Homo sapiens, UniProt P08581) for assorted compounds, compiled from publications.
pKi: −log10 of the molar value.

>>> df
                                   compound  measured_value
0  Nc1ncc(-c2ccc(NC(=O)NC3CCCC3)cc2)cc1-c1nnnn1-c1cccc(F)c1F    6.00 to 7.00
1  CNc1ccc2c(-c3oncc3-c3cccc(F)c3F)c[nH]c2n1          > 6.70
2  COC(=O)[C@H](CC(C)C)NC(=O)Nc1cccc(-c2cnc(N)c(-c3nnnn3-c3cccc(F)c3F)c2)c1    6.00 to 7.00
3  CC(C)(C)OC(=O)N1CCC(CNC(=O)c2cnc3c(-c4ccccn4)c(N)nn3c2)CC1    5.30 to 6.30
4  CN(CCCN)C(=O)c1cccc(-c2cnc3c(-c4ccccn4)c(N)nn3c2)n1          > 6.30
5  Cc1cnc2c(-c3cc(N4CCCC(O)C4)ncn3)c(N)nn2c1 (stereo not drawn)          > 6.30

Field: pKi. Fill in for each record below.
1. CC(C)CN(C)Cc1ccc(-c2cnc(N)c(-c3nnnn3-c3cccc(F)c3F)c2)cc1
2. CCC(C)Nc1ccc2nnc([C@@H](C)NC(=O)c3nc(-c4ccccc4)cnc3N)n2n1 (stereo partly drawn)
3. Nc1ncc(-c2ccc(CN3CCCC3)cc2)cc1-c1nnnn1-c1cc(F)cc(F)c1

[reply]
≥ 7.00
5.60 to 6.60
6.00 to 7.00

----------
Reported Ki on Hepatocyte growth factor receptor (Homo sapiens) for assorted compounds, compiled from publications.

Below are worked cases with known answers.
>>> print(df.to_string())
                                   compound  measured_value
0  Nc1nn2cc(-c3cccc(C(=O)N4CCC(N)C4)n3)cnc2c1-c1ccccn1 (stereo not drawn)        < 0.5 µM
1        Nc1nn2cc(-c3cncnc3)cnc2c1-c1ccccn1     0.5 to 5 µM
2  Nc1ncc(-c2ccn(C3CCNCC3)c2)nc1-c1nnnn1-c1cccc(F)c1F        ≤ 0.1 µM
3        COc1ccc(-c2cnc3c(C#N)c(N)nn3c2)cc1     0.5 to 5 µM
4  CC1(C)CN(c2ccc(-c3cnc(N)c(-c4nnnn4-c4cccc(F)c4F)c3)cc2)C1=O     0.1 to 1 µM
5   Clc1cccc(-c2cnoc2-c2c[nH]c3ncccc23)c1Cl        < 0.2 µM
6  C[C@@H](c1c(F)cc2ncccc2c1F)c1nnc2sc(-c3cnn(C)c3)nn12        < 0.3 µM
7  CC(c1ccc(-c2cnc(N)c(-c3nnnn3-c3cccc(F)c3F)c2)cc1)N1CCCC1 (stereo not drawn)        ≤ 0.1 µM

Field: Ki. Fill in for each record below.
1. Nc1ncc(-c2cc3c(s2)CCNCC3)nc1-c1nnnn1-c1cccc(F)c1F
2. Cc1c(C(=O)Nc2ccc(-c3cccc4cnccc34)c(F)c2)c(=O)n(-c2ccccc2)n1C[C@H](C)O
3. Nc1ncc(-c2ccc3c(c2)CNCC3)cc1-c1nnnn1-c1cccc(F)c1F

[reply]
["≤ 0.1 µM", "0.047 µM", "≤ 0.1 µM"]

Field: Ki. Fill in for each record below.
1. CCN(CCO)C(=O)c1cccc(-c2cnc3c(-c4ccccn4)c(N)nn3c2)n1
2. Nc1nn2cc(-c3ccnc(N4CCN(CCO)CC4)c3)cnc2c1-c1ccccn1
3. COC[C@H](C)Nc1cc(-c2c(N)nn3cc(C)cnc23)ncn1
4. CC(=O)Nc1ccc(-c2cnc(N)c(-c3nnnn3-c3cccc(Cl)c3Cl)c2)cc1
5. Nc1nn2cc(-c3ccnc(NCCCC4=NCC=N4)c3)cnc2c1-c1ccccn1

[reply]
1: < 0.5 µM; 2: < 0.5 µM; 3: < 0.5 µM; 4: ≤ 0.1 µM; 5: < 0.5 µM

Field: Ki. Fill in for each record below.
1. CN(C)Cc1ccc(-c2cnc(N)c(-c3nnnn3-c3cccc(Cl)c3)c2)cc1
2. CCN(CC)C(=O)C1CCCN(c2cc(-c3c(N)nn4cc(C)cnc34)ncn2)C1 (stereo not drawn)
3. CC(C)(O)c1ccc(-c2cnc(N)c(-c3nnnn3-c3cccc(F)c3F)c2)cc1
4. COC(=O)C(c1ccc(-c2cnc(N)c(-c3nnnn3-c3cccc(F)c3F)c2)cc1)N1CCCC1 (stereo not drawn)
5. CN1CCN(Cc2ccc(-c3cnc(N)c(-c4nnnn4-c4cccc(F)c4F)n3)cc2)CC1
6. Fc1cccc(-n2cnnc2-c2c[nH]c3ncc(-c4ccncc4)cc23)c1F
7. CCCCN(CCN)C(=O)c1cccc(-c2cnc3c(-c4ccccn4)c(N)nn3c2)n1

[reply]
1: 0.1 to 1 µM; 2: < 0.5 µM; 3: ≤ 0.1 µM; 4: ≤ 0.1 µM; 5: ≤ 0.1 µM; 6: < 0.2 µM; 7: < 0.5 µM

[ask] Looking for the measured Ki of "Cc1c(F)cccc1-n1nnnc1-c1cc(-c2ccc(CN3CCCC3)cc2)cnc1N" , can you help?
[reply] 0.1 to 1 µM
